system: culture of Flammulina velutipes strain IFO 30601; test: Substrate specificity of the culture (phenol oxidase-like activity, Table 1); format: biochemical; conditions: pH 7.0; determined wavelength per substrate (Table 1); further: test concentration or dose not given here
result_type: U (activity of the culture on the substrate) (U)
Please reply with the bare figure in U and do not write the unit itself.

Query block: Look up U (activity of the culture on the substrate): Nc1ccc(O)cc1
Result block: 0.072

Query block: Look up U (activity of the culture on the substrate): COc1ccccc1O
Result block: 0.117

Query block: Look up U (activity of the culture on the substrate): Oc1ccccc1O
Result block: 0.029

Query block: Look up U (activity of the culture on the substrate): COc1cc(/C=N/N=C/c2cc(OC)c(O)c(OC)c2)cc(OC)c1O
Result block: 0.141

Query block: Look up U (activity of the culture on the substrate): CCn1c(=NN=c2sc3cc(S(=O)(=O)O)ccc3n2CC)sc2cc(S(=O)(=O)O)ccc21
Result block: 0.683

Query block: Look up U (activity of the culture on the substrate): Oc1cccc2[nH]ccc12 [4-Hydroxyindole]
Result block: 0.078

// data source = patent US20050170485A1
